Biological target: p53(Y220C) (Homo sapiens, UniProt P04637, Y220C)
Construct: His-p53 Y220C (94-294) protein
Assay: In vitro DNA binding assay (HTRF), His-p53 Y220C (94-294) with biotinylated p53 consensus DNA
Assay type: biochemical
Settings: HTRF; 27 °C; His-p53 Y220C (94-294) 2.5 nM; biotinylated DNA 10 nM; normalized to 2 μM Ref-1a; EC50 = concentration at 50% Activation; read-out: p53(Y220C) EC50
EC50 under 70 nM gets 1, anything at or over 70 nM gets 0.

{"compound": "COc1cc([S@@](=N)(=O)C2CC2)ccc1NCC#Cc1sc2c(N[C@@H]3CCN(C)C[C@@H]3F)cccc2c1CC(F)(F)F [Example 54]", "answer label": 1}
{"compound": "COc1cc(P(C)(C)=O)ccc1NCC#Cc1sc2c(N[C@H]3CCN(C)C[C@H]3F)cccc2c1[C@@H](O)C(F)(F)F [Example 34]", "answer label": 1}
{"compound": "CN1CC[C@@H](Nc2cccc3c(CC(F)(F)F)c(C#C[C@H]4Cc5cc(P(C)(C)=O)ccc5N4)sc23)[C@@H](F)C1 [Example 22]", "answer label": 0}
{"compound": "COc1cc(S(C)(=O)=O)ccc1NCC#Cc1sc2c(N[C@@H]3CCN(C)C[C@@H]3F)cccc2c1CC(F)(F)F [Example 36]", "answer label": 0}
{"compound": "COc1c(NCC#Cc2sc3c(N[C@@H]4CCN(C)C[C@@H]4F)cccc3c2CC(F)(F)F)ccc(P(C)(C)=O)c1C(F)(F)F [Example 42]", "answer label": 0}
{"compound": "COc1cc(P(C)(C)=O)ccc1NCC#Cc1sc2c(N[C@@H]3CCCN(C)C3)cccc2c1CC(F)(F)F [Example 28]", "answer label": 0}
{"compound": "COc1cc(P(C)(C)=O)ccc1NCC#Cc1sc2c(N[C@H]3CCN(C)C[C@H]3F)cccc2c1[C@H](O)C(F)(F)F [Example 32]", "answer label": 0}
{"compound": "COc1cc(S(C)(=O)=O)ccc1NCC#Cc1sc2c(N[C@H]3CCN(C)C[C@H]3F)cccc2c1CC(F)(F)F [Example 35]", "answer label": 0}
{"compound": "COc1cc(P(C)(C)=O)ccc1NCC#Cc1sc2c(NC3CCS(=N)(=O)CC3)cccc2c1CC(F)(F)F (stereo not drawn) [Example 6]", "answer label": 0}
{"compound": "[2H]C([2H])([2H])Oc1nc(P(C)(C)=O)ccc1NCC#Cc1sc2c(N[C@@H]3CCN(C)C[C@@H]3F)cccc2c1CC(F)(F)F [Example 56]", "answer label": 1}
{"compound": "COc1cc([S@@](=N)(=O)C2COC2)ccc1NCC#Cc1sc2c(N[C@@H]3CCN(C)C[C@@H]3F)cccc2c1CC(F)(F)F [Example 50]", "answer label": 1}
{"compound": "CN1CC[C@@H](Nc2cccc3c(CC(F)(F)F)c(C#CCNc4ccc(P(C)(C)=O)c5c4C(=O)NC5)sc23)[C@@H](F)C1 [Example 55]", "answer label": 1}
{"compound": "[2H]C([2H])([2H])Oc1cc(P(C)(C)=S)ccc1NCC#Cc1sc2c(N[C@@H]3CCN(C)C[C@@H]3F)cccc2c1CC(F)(F)F [Example 47]", "answer label": 0}
{"compound": "COc1cc([S@@](C)(=N)=O)ccc1NCC#Cc1sc2c(N[C@H]3CCN(C)C[C@@H]3F)cccc2c1[C@@H](O)C(F)(F)F [Example 58]", "answer label": 1}
{"compound": "COc1cc([S@@](C)(=N)=O)ccc1NCC#Cc1sc2c(N[C@@H]3CCN(C)C[C@H]3F)cccc2c1[C@@H](O)C(F)(F)F [Example 59]", "answer label": 0}
{"compound": "COc1cc([S@](=N)(=O)C2COC2)ccc1NCC#Cc1sc2c(N[C@@H]3CCN(C)C[C@@H]3F)cccc2c1CC(F)(F)F [Example 49]", "answer label": 1}
{"compound": "COc1cc([S@@](C)(=N)=O)ccc1NCC#Cc1sc2c(N[C@@H]3CCN(C)C[C@@H]3F)cccc2c1[C@@H](O)C(F)(F)F [Example 60]", "answer label": 0}
{"compound": "COc1c(NCC#Cc2sc3c(N[C@@H]4CCN(C)C[C@@H]4F)cccc3c2CC(F)(F)F)ccc(P(C)(C)=O)c1C [Example 41]", "answer label": 1}
{"compound": "COc1cc(P(C)(C)=O)ccc1NCC#Cc1sc2c(N[C@@H]3CCN(C)C[C@@H]3F)cccc2c1[C@H](O)C(F)(F)F [Example 31]", "answer label": 1}
{"compound": "COc1cc(P(C)(C)=O)ccc1NCC#Cc1sc2c(N[C@H]3CCN(C)C[C@H]3F)cccc2c1C(C)C(F)(F)F (stereo partly drawn) [Example 17]", "answer label": 0}

Data origin: patent US20260374794A1
